tested on: HCT-15 colon; assay: NCI tumour cell line growth inhibition, 48 h
VALUE KIND: TGI

compound="O=C1C2C=CC(n3[nH]c(=O)n(Cc4ccccc4)c3=O)CC2C(=O)N1c1ccc(Br)cc1 (configuration not stated)" value_kind=TGI endpoint_result="> 100 µM"
compound=O=c1[nH]nc(Cc2ccc(Cl)cc2)n1/N=C/c1ccc([N+](=O)[O-])o1 value_kind=TGI endpoint_result="11.5 µM"
compound=Clc1cc(Cl)ncn1 value_kind=TGI endpoint_result="> 100 µM"
compound="CCC(=O)OC1CCn2c1nc1c2C(=O)C(C)=C(NC(C)=O)C1=N (configuration not stated)" value_kind=TGI endpoint_result="6.27 µM"
compound="CCCCCCCCC#CCCCCCCCCCC[C@@H]1C(=O)O[C@H](C)[C@@H]1O (tested in a mixture with another compound)" value_kind=TGI endpoint_result="> 100 µM"
compound="Cc1ccc2nc(NC(=O)C(=O)C(C#N)c3ccc(Cl)cc3)sc2c1 (configuration not stated)" value_kind=TGI endpoint_result="> 50 µM"
compound="CC(CNC(N)=O)NC(N)=O (configuration not stated)" value_kind=TGI endpoint_result="> 100 µM"
compound="Cc1ccc(S(=O)(=O)NC(=O)C2=C3SCCN3C(=O)N(S(=O)(=O)c3ccc(C)cc3)C2c2ccccc2)cc1 (configuration not stated)" value_kind=TGI endpoint_result="> 100 µM"
compound="CCOC1=C(c2ccccc2)N2CCCCC2O1 (configuration not stated)" value_kind=TGI endpoint_result="98.6 µM"
compound=Cc1nc(Nc2ccccc2Cl)sc1C(=O)CC(=O)C(N)=O value_kind=TGI endpoint_result="> 100 µM"
compound=COc1cc2nc(-c3cccs3)nc(Nc3cccc(Cl)c3)c2cc1OC value_kind=TGI endpoint_result="> 100 µM"
compound=Cc1c2ccncc2c(C)c2c1[nH]c1ccc(OCCN(C)C)cc12 value_kind=TGI endpoint_result="0.706 µM"

* * *

test system: MALME-3M melanoma; test: NCI tumour cell line growth inhibition, 48 h
VALUE KIND: TGI

substance_smiles=O=C(NC(=O)c1c(Cl)nc2sccn12)Nc1ccc(Cl)cc1 endpoint_result="> 100 µM"
substance_smiles=CCCCC#Cc1c(I)n(C)c(=O)[nH]c1=O endpoint_result="3.55 µM"
substance_smiles=NCCSCCC(=O)O endpoint_result="> 100 µM"
substance_smiles=COc1ccc2oc3c(OC)c(OC)c(OC)cc3c(=O)c2c1 endpoint_result="> 100 µM"

* * *

system: HL-60(TB) leukemia; test: NCI tumour cell line growth inhibition, 48 h; in the data active = GI50 below about 0.43 µM; inactive = the rest
Labels: active, inactive

compound="COc1ccccc1S(=O)(=O)Nc1ccc2c3c(cc(CCC(=O)NCCCCNc4cccc5c4C(=O)N(C4CCC(=O)NC4=O)C5=O)cc13)C(=O)N2C (stereo not drawn)" label_value=active
compound=CS(=O)(=O)Nc1cccc(-c2ccc3ncnc(Nc4ccc(F)c(Cl)c4)c3c2)c1 label_value=inactive
compound=c1ccc(OCCC[P+](c2ccccc2)(c2ccccc2)c2ccccc2)cc1 label_value=active

* * *

Recorded TGI, one value per entry.
tested on: HS 578T breast; assay: NCI tumour cell line growth inhibition, 48 h
VALUE KIND: TGI

molecule=[N-]=[N+]=NCCCn1c2c(c3ccc([N+](=O)[O-])cc3c1=O)C(=O)c1cc(Br)ccc1-2 value_kind=TGI endpoint_result="> 100 µM"
molecule="Cc1ccc(S(=O)(=O)NC(=O)C2=C3SCCN3C(=O)N(S(=O)(=O)c3ccc(C)cc3)C2c2ccccc2)cc1 (stereo not drawn)" value_kind=TGI endpoint_result="> 100 µM"
molecule=O=C(Nc1nn[nH]n1)c1nc(-c2ccccc2)cc(=O)[nH]1 value_kind=TGI endpoint_result="> 100 µM"
molecule=O=[Se](O)O value_kind=TGI endpoint_result="> 100 µM"
molecule=CC(=O)C(C)(C)CCC(C)(C)C(C)=O value_kind=TGI endpoint_result="> 100 µM"
molecule=OC(NN=C1CCCC1)(C(F)(F)Cl)C(F)(F)Cl value_kind=TGI endpoint_result="> 10 µM"
molecule=COc1ccc(-c2nc(-c3nc4ccc(C)cc4[nH]3)cc3c2[nH]c2ccccc23)cc1 value_kind=TGI endpoint_result="> 100 µM"
molecule=COc1ccc(C(=O)c2cc(C)c(OC)c(C)c2)c(OC)c1NC(C)=O value_kind=TGI endpoint_result="> 100 µM"
molecule=C#CC1=CC(=O)C(OC)=CC1=O value_kind=TGI endpoint_result="> 100 µM"
molecule=Cn1cc(C2=C(c3c[nH]c4ccccc34)C(=O)NC2=O)c2ccccc21 value_kind=TGI endpoint_result="> 25 µM"
molecule=O=C(O)/C=C\C(=O)Nn1c(Cc2ccc(Cl)cc2)n[nH]c1=O value_kind=TGI endpoint_result="> 100 µM"
molecule=COc1cc(N(CCC#N)CCC#N)ccc1/C=N\NC(=O)c1ccc(C)cc1 value_kind=TGI endpoint_result="> 100 µM"
molecule=Cc1cc(S(=O)(=O)/N=C(/NN)Nc2ccc(Cl)cc2)c(S)cc1Cl value_kind=TGI endpoint_result="11.3 µM"
molecule=CS(=O)(=O)c1ccc(Nc2nc(N[C@H]3CCCC[C@H]3N)nc3cc[nH]c(=O)c23)cc1 value_kind=TGI endpoint_result="4.95 µM"
molecule=O=C(OCc1ccccc1)N1CCNCCNCCN(C(=O)OCc2ccccc2)CCNCC1 value_kind=TGI endpoint_result="44 µM"
molecule="O=C(NNc1ccc(Cl)cc1)C1CCC(CNS(=O)(=O)c2ccccc2Cl)CC1 (stereo not drawn)" value_kind=TGI endpoint_result="> 100 µM"
molecule=COc1ccc(/C=C/c2c(C(=O)/C=C/c3ccc(C(F)(F)F)cc3)c(C)nc3ccccc23)cc1 value_kind=TGI endpoint_result="8.29 µM"
molecule=CC(C)CCOC(=O)NC(Nc1ccc(F)cc1)(C(F)(F)F)C(F)(F)F value_kind=TGI endpoint_result="> 100 µM"
molecule="CC(=O)OC12C=C(C)C(C(C)C1)C1C(=O)N(CCN3CCCCC3)C(=O)C12 (stereo not drawn)" value_kind=TGI endpoint_result="> 50 µM"
molecule=C#C[C@@]1(O)[C@@H](CO)O[C@@H](n2cc(I)c3c(N)ncnc32)[C@@H]1O value_kind=TGI endpoint_result="7.83 µM"
molecule=COc1ccccc1NC(=O)CC(=O)NN value_kind=TGI endpoint_result="> 100 µM"
molecule=O=C1NC(N2CCOCC2)=N/C1=C\c1ccc(O)cc1 value_kind=TGI endpoint_result="> 100 µM"
molecule=CS(=O)(=O)Nc1cccc(-c2ccc3ncnc(Nc4ccc(F)c(Cl)c4)c3c2)c1 value_kind=TGI endpoint_result="5.55 µM"

* * *

system: CCRF-CEM leukemia; assay: NCI tumour cell line growth inhibition, 48 h
VALUE KIND: TGI

compound=O=C(OCc1ccccc1)N1CCNCCNCCN(C(=O)OCc2ccccc2)CCNCC1 system_name="CCRF-CEM leukemia" value_kind=TGI endpoint_result="65.9 µM"
compound=CC(C)CCOC(=O)NC(Nc1ccc(F)cc1)(C(F)(F)F)C(F)(F)F system_name="CCRF-CEM leukemia" value_kind=TGI endpoint_result="99.5 µM"
compound=COc1ccc2nc(C(=O)c3ccccc3)c(C)cc2c1 system_name="CCRF-CEM leukemia" value_kind=TGI endpoint_result="> 100 µM"
compound=CC(C)c1cc(C(C)C)c(S(=O)(=O)N=[N+]=[N-])c(C(C)C)c1 system_name="CCRF-CEM leukemia" value_kind=TGI endpoint_result="> 100 µM"
compound="CC(CNC(N)=O)NC(N)=O (stereo not given)" system_name="CCRF-CEM leukemia" value_kind=TGI endpoint_result="> 100 µM"
compound=CS(=O)(=O)Nc1cccc(-c2ccc3ncnc(Nc4ccc(F)c(Cl)c4)c3c2)c1 system_name="CCRF-CEM leukemia" value_kind=TGI endpoint_result="> 100 µM"
compound="COc1ccc(-c2cc3c(C)nc(N)nc3n(C3CCC(OCCO)CC3)c2=O)cn1 (stereo not given)" system_name="CCRF-CEM leukemia" value_kind=TGI endpoint_result="> 23.8 µM"
compound=Cc1c(C#N)cccc1[C@@H](C)Nc1nnc(C)c2cnc(N3CCOCC3)cc12 system_name="CCRF-CEM leukemia" value_kind=TGI endpoint_result="> 100 µM"
compound=COc1ccccc1NC(=O)C1=C(C)NC(C)=C(C(=O)Nc2ccccc2OC)C1/C=C/c1ccccc1 system_name="CCRF-CEM leukemia" value_kind=TGI endpoint_result="> 100 µM"
compound=NC(=O)CN1C=CCC(C(N)=O)=C1 system_name="CCRF-CEM leukemia" value_kind=TGI endpoint_result="> 100 µM"

* * *

system: KM12 colon; experiment: NCI tumour cell line growth inhibition, 48 h
Recorded TGI, one value per entry.
VALUE KIND: TGI

compound=O=c1c2nc(-c3ccccc3)oc2n(-c2ccccc2)c(=O)n1-c1ccccc1 system_name="KM12 colon" endpoint_result="> 46.4 µM"
compound=Cc1c2cccc-2ccc2c3ccccc3n(C(=O)c3ccc(Cl)cc3)c12 system_name="KM12 colon" endpoint_result="> 100 µM"
compound=CC1=C(SC#N)S(=O)(=O)N(c2ccccc2)C(C)=C1SC#N system_name="KM12 colon" endpoint_result="> 100 µM"
compound="Cc1ccccc1NC(=O)CC(=O)NNC(Sc1ccccc1)c1cc(N=Nc2ccc(Br)cc2)ccc1O (centres undefined)" system_name="KM12 colon" endpoint_result="> 10 µM"
